Measured values drawn from PubChem BioAssay (NCI) for this set.

- Test system: NCI-H522 lung
- Measurement Notes: NCI-60 one-dose screen, 48 h
- Condition Context: 10 µM unless noted
About 83,000 compounds went through this panel and 20% of them were active in at least one assay; those are over-represented in the sample as a whole. Active and inactive are the calls of the source. The calls were made as follows: active = growth percent below 10; inactive = the rest.
Outcome codes: label 1 = active, label 0 = inactive

>  <Molecule>
CN(C)CC(O)c1ccc(/C=C/c2ccc(Cl)cc2)cc1 (stereo unspecified)

>  <Label Class>
label 1

$$$$
>  <Molecule>
COc1cc(-c2cc(-c3ccc(N(C)C)cc3)nc(N3CCOCC3)c2C#N)cc(OC)c1OC

>  <Label Class>
label 1

$$$$
>  <Molecule>
N#Cc1cccc(-c2ccc3c(c2)NC(=O)/C3=C\c2ccc[nH]2)c1

>  <Label Class>
label 0

$$$$
>  <Molecule>
COc1cc(/C=C/C(=O)c2nc3cc(F)ccc3nc2C)cc(OC)c1OC

>  <Label Class>
label 0

$$$$
>  <Molecule>
Nc1n[nH]c2cccc(C#Cc3cccc(C(=O)Nc4cc(CN5CCOCC5)cc(C(F)(F)F)c4)c3)c12

>  <Label Class>
label 0

$$$$
>  <Molecule>
Cc1nn(-c2ccccc2)c(Cl)c1/C=N\N=c1/sc2ccccc2n1C

>  <Label Class>
label 0

$$$$
>  <Molecule>
O=S(=O)(NCCNc1nccc(-c2c(-c3cccc(F)c3)nc3sccn23)n1)c1ccc(Cl)cc1

>  <Label Class>
label 0

$$$$
>  <Molecule>
C#Cc1cccc(NC(=O)c2cccc(NC(=O)CCl)c2)c1

>  <Label Class>
label 1

$$$$
>  <Molecule>
CC(=O)N1N=C(c2ccc(-n3ccc(C(F)(F)F)n3)c(F)c2)CC1c1ccc[nH]1 (stereo unspecified)

>  <Label Class>
label 0

$$$$
>  <Molecule>
CCCCN1C=CCN(CCCC)C1

>  <Label Class>
label 0

$$$$
>  <Molecule>
COc1cc2c(cc1OC)C(=O)/C(=C/c1cc(C)c(O)c(C)c1)S2

>  <Label Class>
label 1

$$$$
>  <Molecule>
COc1cc2c(c(O)c1Cl)C(=O)c1c(O)cc(C[C@H](C)O)cc1[C@H]2[C@H]1c2cc(C[C@H](C)O)cc(O)c2C(=O)c2c1cc(OC)c(Cl)c2O

>  <Label Class>
label 1

$$$$
>  <Molecule>
N#C/C(=C\c1cccc(C#N)c1)c1ccccc1

>  <Label Class>
label 0

$$$$
>  <Molecule>
Oc1cccc(CCc2ccc(Oc3cc(CCc4cccc(O)c4)cc(O)c3O)cc2)c1

>  <Label Class>
label 1

$$$$
>  <Molecule>
NS(=O)(=O)c1ccc(CCN2C(=O)C=CC2=O)cc1

>  <Label Class>
label 0

$$$$
>  <Molecule>
O=C(Cc1ccc(/C=C/C(=O)c2ncc[nH]2)cc1)Nc1ccc(Cl)cc1

>  <Label Class>
label 0

$$$$

* * *

- System: SK-MEL-28 melanoma
- Measurement Notes: NCI-60 one-dose screen, 48 h (100 = growth as untreated, 0 = no growth, -100 = all killed)
- Condition Context: 10 µM unless noted
Compounds without any hit were thinned out: in the full panel of roughly 83,000, 20% have a hit.

>  <Compound>
N#C/C(=C\c1ccc(Cl)cc1)n1nnc2cc(F)c(F)cc21

>  <growth (%)>
29.6

$$$$
>  <Compound>
COc1cc2oc(-c3cccc(C(=O)Nc4ccccc4)c3)cc(=O)c2c(O)c1OC

>  <growth (%)>
87.4

$$$$
>  <Compound>
COc1cc(-c2cc(-c3ccc(N(C)C)cc3)nc(N3CCOCC3)c2C#N)cc(OC)c1OC

>  <growth (%)>
65.4

$$$$
>  <Compound>
O=S(=O)(Nc1ccc(-n2cnc3cc(-c4ccc(O)cc4)ccc32)cc1)c1ccccc1

>  <growth (%)>
104

$$$$
>  <Compound>
CCN1C(=O)N(CC)C2Nn3c(s/c(=C\c4ccc(OC)cc4)c3=O)=NC21 (centres undefined)

>  <growth (%)>
62.8

$$$$
>  <Compound>
COc1cccc(-c2nc3occn3c2-c2ccnc(NCCCNS(=O)(=O)c3ccc(C(F)(F)F)cc3)n2)c1

>  <growth (%)>
97.5

$$$$
>  <Compound>
COc1ccc(NC(N)=NCCCOc2ccc(F)cc2)cc1

>  <growth (%)>
88.5

$$$$
>  <Compound>
Cc1nc2sccn2c1-c1cn2ccsc2n1

>  <growth (%)>
104

$$$$
>  <Compound>
COc1ccc(C(=O)CC#N)cc1

>  <growth (%)>
114

$$$$
